PROCEDURE SUMMARY: Haemolytic activity in sheep erythrocytes assessed as induction of haemolysis at 5 ug/ml incubated for 2 hrs relative to control
Format: cell-based, Ovis aries, Erythrocyte
CONDITIONS USED: read-out: Activity
The compounds listed here are annotated with their hemolysis at 2 h, 5 ug/ml.
Write the answer as a number in %, unit excluded.

CC(C)CCOc1ccccc1-c1ccccc1OCc1cn([C@H](CCCNC(=N)N)C(=O)N[C@H](CCCCN)Cn2cc(CC3CCCCC3)nn2)nn1.Cl.Cl | 1.6
CC(C)CCOc1ccc2ccccc2c1-c1c(OCc2cn([C@H](CCCNC(=N)N)C(=O)N[C@H](CCCCN)Cn3cc(CC4CCCCC4)nn3)nn2)ccc2ccccc12.Cl.Cl | 1.8

Answer with the recorded hemolysis at 2 h, 5 ug/ml of CC(C)CCOc1ccc2ccccc2c1-c1c(OCc2cn([C@H](CCCNC(=N)N)C(=O)NCCc3ccccc3)nn2)ccc2ccccc12.Cl only.
0.1

Return reported hemolysis at 2 h, 5 ug/ml. Input compound: CC(C)CCOc1ccc2ccccc2c1-c1c(OCC(=O)N[C@H](CCCNC(=N)N)C(=O)NCc2ccccc2)ccc2ccccc12.Cl
0.3

Tell us which hemolysis at 2 h, 5 ug/ml value is on record for CC(C)CCOc1ccc2ccccc2c1-c1c(OCc2cn([C@H](CCCCN)C(=O)N[C@H](CCCNC(=N)N)Cn3cc(CCc4ccccc4)nn3)nn2)ccc2ccccc12.Cl.Cl
1.5

Give recorded hemolysis at 2 h, 5 ug/ml. CC(C)CCOc1ccccc1-c1ccccc1OCc1cn([C@H](CCCCN)C(=O)NCC2CCCCC2)nn1.Cl
0

Provide measured hemolysis at 2 h, 5 ug/ml value, entry: CC(C)CCOc1ccccc1-c1ccccc1OCc1cn([C@H](CCCCN)C(=O)N[C@H](CCCNC(=N)N)Cn2cc(CCc3ccccc3)nn2)nn1.Cl.Cl
1.4

Give the measured hemolysis at 2 h, 5 ug/ml for CC(C)CCOc1ccccc1-c1ccccc1OCc1cn([C@H](CCCNC(=N)N)C(=O)NC2CCCCC2)nn1.Cl
1.4

====

System: Pseudomonas aeruginosa
PROCEDURE SUMMARY: Growth inhibition of Pseudomonas aeruginosa ATCC 27853 incubated for 18 hrs
Assay type: organism-based
We begin with a simple list: items and their reported MIC.

// below: answered compounds
CC(C)CCOc1ccc2ccccc2c1-c1c(OCc2cn([C@H](CCCCN)C(=O)N[C@H](CCCNC(=N)N)Cn3cc(CCc4ccccc4)nn3)nn2)ccc2ccccc12.Cl.Cl | 16 µg/mL
CCCN(CC1CC1)C(=O)[C@@H](CCCNC(=N)N)n1cc(COc2ccccc2-c2ccccc2OCCC(C)C)nn1.Cl | > 32 µg/mL
CC(C)CCOc1ccccc1-c1ccccc1OCc1cn([C@H](CCCNC(=N)N)C(=O)NCc2cc(F)cc(F)c2)nn1.Cl | > 32 µg/mL
CC(C)CCOc1ccccc1-c1ccccc1OCc1cn([C@H](CCCNC(=N)N)C(=O)NC2CC2)nn1.Cl | > 32 µg/mL
CC(C)CCOc1ccc2ccccc2c1-c1c(OCc2cn([C@H](CCCNC(=N)N)C(=O)NCc3ccccc3)nn2)ccc2ccccc12.Cl | > 32 µg/mL

Note down MIC recorded for CC(C)CCOc1ccccc1-c1ccccc1OCc1cn([C@H](CCCCN)C(=O)NCc2ccc(C(F)(F)F)cc2)nn1.Cl
> 32 µg/mL

Give the reported MIC for this compound. CC(C)CCOc1ccccc1-c1ccccc1OCc1cn([C@H](CCCNC(=N)N)C(=O)NCCc2ccccc2)nn1.Cl
> 32 µg/mL

====

Reported MIC values are given for each entry in this list.
Test system: Acinetobacter baumannii
PROCEDURE SUMMARY: Growth inhibition of Acinetobacter baumannii ATCC 19606 incubated for 18 hrs without shaking by absorbance based monochromator plate reader analysis
Format: organism-based, ATCC 19606 = CIP 70.34 = JCM 6841
CONDITIONS USED: in vitro

Some compounds with recorded MIC:
CC(C)CCOc1ccccc1-c1ccccc1OCc1cn([C@H](CCCNC(=N)N)C(=O)NCc2ccc(C(F)(F)F)cc2)nn1.Cl | > 32 µg/mL
CC(C)CCOc1ccccc1-c1ccccc1OCc1cn([C@H](CCCNC(=N)N)C(=O)Nc2ccccc2)nn1.Cl | > 32 µg/mL
CC(C)CCOc1ccc2ccccc2c1-c1c(OCc2cn([C@H](CCCCN)C(=O)N[C@H](CCCNC(=N)N)Cn3cc(CCc4ccccc4)nn3)nn2)ccc2ccccc12.Cl.Cl | 8 µg/mL
CCCN(CC1CC1)C(=O)[C@@H](CCCNC(=N)N)n1cc(COc2ccccc2-c2ccccc2OCCC(C)C)nn1.Cl | > 32 µg/mL
COc1cc(NC(=O)[C@@H](CCCNC(=N)N)n2cc(COc3ccccc3-c3ccccc3OCCC(C)C)nn2)cc(OC)c1.Cl | > 32 µg/mL
CC(C)CCOc1ccccc1-c1ccccc1OCc1cn([C@H](CCCCN)C(=O)N[C@H](CCCNC(=N)N)Cn2cc(CC3CCCCC3)nn2)nn1.Cl.Cl | 8 µg/mL

Answer with the recorded MIC for the compound listed here: CC(C)CCOc1ccccc1-c1ccccc1OCc1cn([C@H](CCCCN)C(=O)NCCc2ccccc2)nn1.Cl
32 µg/mL

====

Readings of MIC for the listed molecules
Test system: Acinetobacter baumannii
PROCEDURE SUMMARY: Growth inhibition of Acinetobacter baumannii ATCC 19606 incubated for 18 hrs without shaking by absorbance based monochromator plate reader analysis
Assay type: organism-based, ATCC 19606 = CIP 70.34 = JCM 6841
CONDITIONS USED: in vitro
State just the number; it will be interpreted in µg/mL.

Please review the following examples before continuing.
CC(C)CCOc1ccc2ccccc2c1-c1c(OCc2cn([C@H](CCCCN)C(=O)N[C@H](CCCNC(=N)N)C(=O)N3CCCCC3)nn2)ccc2ccccc12.Cl.Cl | 8
CC(C)CCOc1ccccc1-c1ccccc1OCc1cn([C@H](CCCNC(=N)N)C(=O)NCc2ccccc2)nn1.Cl | 32
CC(C)CCOc1ccc2ccccc2c1-c1c(OCc2cn([C@H](CCCCN)C(=O)N[C@H](CCCNC(=N)N)C(=O)NCc3ccccc3)nn2)ccc2ccccc12.Cl.Cl | 32

Turning now to a further record.
# return recorded MIC for entry CC(C)CCOc1ccc2ccccc2c1-c1c(OCc2cn([C@H](CCCCN)C(=O)N[C@H](CCCNC(=N)N)C(=O)NCCc3ccccc3)nn2)ccc2ccccc12.Cl.Cl
8

====

System: Staphylococcus aureus
PROCEDURE SUMMARY: Growth inhibition of Staphylococcus aureus ATCC 29213 incubated in MHB broth for 24 hrs
Type: organism-based
Overview of reported log10 of MIC across a group of molecules:
Log10 applied to MIC; unit prior to transform: µg/mL.

CC(C)CCOc1ccccc1-c1ccccc1OCc1cn([C@H](CCCNC(=N)N)C(=O)N[C@H](CCCCN)Cn2cc(CC3CCCCC3)nn2)nn1.Cl.Cl | 0.60

Give reported log10 of MIC value for CC(C)CCOc1ccccc1-c1ccccc1OCc1cn([C@H](CCCCN)C(=O)N[C@H](CCCNC(=N)N)Cn2cc(C3CCCCC3)nn2)nn1.Cl.Cl
1.20

Query log10 of MIC for CC(C)CCOc1ccc2ccccc2c1-c1c(OCC(=O)N[C@H](CCCNC(=N)N)C(=O)NCc2ccccc2)ccc2ccccc12.Cl
0.30

Give recorded log10 of MIC. CC(C)CCOc1ccc2ccccc2c1-c1c(OCc2cn([C@H](CCCNC(=N)N)C(=O)N[C@H](CCCCN)Cn3cc(CCc4ccccc4)nn3)nn2)ccc2ccccc12.Cl.Cl
0.60

Please report the measured log10 of MIC for CC(C)CCOc1ccccc1-c1ccccc1OCc1cn([C@H](CCCCN)C(=O)NCC2CCCCC2)nn1.Cl
0.90

Specify log10 of MIC for CC(C)CCOc1ccccc1-c1ccccc1OCc1cn([C@H](CCCCN)C(=O)NCc2ccc(C(F)(F)F)cc2)nn1.Cl and stop.
0.60

Return the recorded log10 of MIC value; entry: CC(C)CCOc1ccccc1-c1ccccc1OCc1cn([C@H](CCCNC(=N)N)C(=O)NCc2ccccc2)nn1.Cl
0.60

Query log10 of MIC for CC(C)CCOc1ccccc1-c1ccccc1OCc1cn([C@H](CCCNC(=N)N)C(=O)N[C@H](CCCCN)Cn2cc(Cc3ccccc3)nn2)nn1.Cl.Cl
0.90

Provide only the value of recorded log10 of MIC for CC(C)CCOc1ccccc1-c1ccccc1OCc1cn([C@H](CCCNC(=N)N)C(=O)NCC2CCCCC2)nn1.Cl
0.60

Input CC(C)CCOc1ccccc1-c1ccccc1OCc1cn([C@H](CCCCN)C(=O)NCCc2ccc(F)cc2)nn1.Cl , output reported log10 of MIC.
0.60

Please report log10 of MIC for the following molecule: CC(C)CCOc1ccccc1-c1ccccc1OCc1cn([C@H](CCCNC(=N)N)C(=O)Nc2ccccc2)nn1.Cl
0.30

Read the entry CC(C)CCOc1ccccc1-c1ccccc1OCc1cn([C@H](CCCCN)C(=O)NCCc2ccccc2)nn1.Cl and write its reported log10 of MIC.
0.90

Ref: ChEMBL document CHEMBL4393656
